# Test system: Nakaseomyces glabratus
# Test Protocol: Antimicrobial activity against flucytosine, azole, and caspofungin resistant Candida glabrata bloodstream isolate 3 harboring Fur1 G190D mutation serially obtained from hematopoietic stem cell transplant recipient by Etest
MIC values, listed per item
Experimental Readout: MIC

INSERT INTO measurements (mol, system_name, measured) VALUES
  ('C[C@@H]1[C@H](O)[C@@H](C)/C=C/C=C/C=C/C=C/C=C/C=C/C=C/[C@H](O[C@@H]2O[C@H](C)[C@@H](O)[C@H](N)[C@@H]2O)C[C@@H]2O[C@](O)(C[C@@H](O)C[C@@H](O)[C@H](O)CC[C@@H](O)C[C@@H](O)CC(=O)O[C@H]1C)C[C@H](O)[C@H]2C(=O)O', 'Nakaseomyces glabratus', '0.75 µg/mL'),
  ('Nc1nc(=O)[nH]cc1F', 'Nakaseomyces glabratus', '> 32 µg/mL'),
  ('C[C@@H](c1ncncc1F)[C@](O)(Cn1cncn1)c1ccc(F)cc1F', 'Nakaseomyces glabratus', '0.047 µg/mL'),
  ('OC(Cn1cncn1)(Cn1cncn1)c1ccc(F)cc1F', 'Nakaseomyces glabratus', '1 µg/mL'),
  ('CC[C@H](C)C[C@H](C)CCCCCCCCC(=O)N[C@H]1C[C@@H](O)[C@@H](NCCN)NC(=O)[C@@H]2[C@@H](O)CCN2C(=O)[C@H]([C@H](O)CCN)NC(=O)[C@H]([C@H](O)[C@@H](O)c2ccc(O)cc2)NC(=O)[C@@H]2C[C@@H](O)CN2C(=O)[C@H]([C@@H](C)O)NC1=O', 'Nakaseomyces glabratus', '0.125 µg/mL');
